B1: library; numbered along this chain (parent)
chain: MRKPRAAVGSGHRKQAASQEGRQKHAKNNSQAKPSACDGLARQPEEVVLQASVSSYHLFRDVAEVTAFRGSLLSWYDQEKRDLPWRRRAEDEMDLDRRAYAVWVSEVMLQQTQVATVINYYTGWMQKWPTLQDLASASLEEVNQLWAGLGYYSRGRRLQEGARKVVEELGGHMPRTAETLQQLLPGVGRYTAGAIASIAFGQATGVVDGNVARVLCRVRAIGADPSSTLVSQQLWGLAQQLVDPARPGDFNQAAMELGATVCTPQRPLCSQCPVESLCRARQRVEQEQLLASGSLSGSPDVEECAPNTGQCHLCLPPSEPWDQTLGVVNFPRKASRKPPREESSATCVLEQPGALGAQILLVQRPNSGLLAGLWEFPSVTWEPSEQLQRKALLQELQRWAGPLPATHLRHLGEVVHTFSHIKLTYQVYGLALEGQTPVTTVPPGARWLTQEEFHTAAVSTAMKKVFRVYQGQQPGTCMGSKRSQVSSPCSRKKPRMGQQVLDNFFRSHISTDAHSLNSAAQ

- Variants of: B1
- protocol_description: 8OG:A repair function score (normalized; synonymous = 0, nonsense = -1) (normalized log-likelihood score); higher = more repair activity (WT-like);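 further: cells sorted at 72 h after reporter transfection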
- run_conditions: with 8OG:A DNA repair reporter (GFP) in HEK-293 MUTYH KO cells
quantity_name: 8OG:A repair function score

Asked: Look up and state reported 8OG:A repair function score for L392C
Given back: -0.389

Asked: Look up and state reported 8OG:A repair function score for Y425A
Given back: -0.637

Asked: Look up and state reported 8OG:A repair function score for G155H
Given back: -0.388

Asked: Look up and state reported 8OG:A repair function score for R281I
Given back: -0.176

Asked: Look up and state reported 8OG:A repair function score for D300I
Given back: -0.191

Asked: Look up and state reported 8OG:A repair function score for L448W
Given back: -0.658

Asked: Look up and state reported 8OG:A repair function score for A456M
Given back: -0.328

Asked: Look up and state reported 8OG:A repair function score for A305D
Given back: -0.0865

Asked: Look up and state reported 8OG:A repair function score for P443N
Given back: 0.222

Asked: Look up and state reported 8OG:A repair function score for D82V
Given back: -0.0236

Asked: Look up and state reported 8OG:A repair function score for P185T
Given back: -0.242

Asked: Look up and state reported 8OG:A repair function score for G148Q
Given back: -0.44

Asked: Look up and state reported 8OG:A repair function score for G148E
Given back: -0.792

Asked: Look up and state reported 8OG:A repair function score for S270N
Given back: -0.0408

Asked: Look up and state reported 8OG:A repair function score for L83Q
Given back: -0.947

Asked: Look up and state reported 8OG:A repair function score for Q181V
Given back: -0.114

Asked: Look up and state reported 8OG:A repair function score for D224G
Given back: -0.936

Asked: Look up and state reported 8OG:A repair function score for V53N
Given back: -0.0892

Asked: Look up and state reported 8OG:A repair function score for Q233W
Given back: -0.0138

Asked: Look up and state reported 8OG:A repair function score for A291W
Given back: -0.0221

Asked: Look up and state reported 8OG:A repair function score for Q310A
Given back: -0.00829

Asked: Look up and state reported 8OG:A repair function score for T116M
Given back: -0.441
